Test system: SK-NEP-1
test.method.notes: Antiproliferative activity against human SK-NEP-1 cells after 10 days
Assay type: functional, cell-based
condition.description: SK-NEP-1, 240 h
outcome.measure: IC50 (µM)
Number in µM, nothing else.

Q. What does the data say about its IC50? Entry: Cc1cn(CCN2CCN(c3ccccc3-c3cc(C#N)cc(C(=O)NCCCN4CCCC4)c3)CC2)c2ccccc12
A. 3.18

====

Test system: AN3-CA
test.method.notes: Antiproliferative activity against human AN3-CA cells after 10 days
Assay type: functional, cell-based
condition.description: 240 h
outcome.measure: IC50 (nM)
Number in nM, nothing else.

Q. What does the data say about its IC50? Entry: Cc1cn(CCN2CCN(c3ccccc3-c3cc(C#N)cc(C(=O)NCCCN4CCCC4)c3)CC2)c2ccccc12
A. 2420

====

Tested on: NCI-H292
test.method.notes: Antiproliferative activity against human NCI-H292 cells after 10 days
Assay type: functional, cell-based
condition.description: NCI-H292, 240 h
outcome.measure: IC50 (µM)
Number in µM, nothing else.

Q. What does the data say about its IC50? Entry: Cc1cn(CCN2CCN(c3ccccc3-c3cc(C#N)cc(C(=O)NCCCN4CCCC4)c3)CC2)c2ccccc12
A. 2.69

====

test.method.notes: Antiproliferative activity against human KPL-1 cells after 10 days
Type: functional, cell-based
condition.description: KPL-1, 240 h
outcome.measure: pIC50
// scale note: pIC50 = -log10(conc_M); give the bare number

Q. What does the data say about its pIC50? Entry: Cc1cn(CCN2CCN(c3ccccc3-c3cc(C#N)cc(C(=O)NCCCN4CCCC4)c3)CC2)c2ccccc12
A. 5.46

====

// IC50 lookup, one value per entry
System: CRO-AP2
test.method.notes: Antiproliferative activity against human CRO-AP2 cells after 10 days
Type: functional, cell-based
condition.description: CRO-AP2, 240 h
Number in µM, nothing else.

O=C(NC1CN(Cc2cnn(Cc3ccccc3)c2)C1)c1cn(C2CC2)nn1 :: 0.075

Okay, next one:
Q. What does the data say about its IC50? Entry: Cc1cn(CCN2CCN(c3ccccc3-c3cc(C#N)cc(C(=O)NCCCN4CCCC4)c3)CC2)c2ccccc12
A. 2.26

====

Tested on: Calu-6
test.method.notes: Antiproliferative activity against human Calu-6 cells after 10 days
Format: functional, cell-based
condition.description: Calu-6, 240 h
outcome.measure: IC50 (µM)
Number in µM, nothing else.

Q. What does the data say about its IC50? Entry: Cc1cn(CCN2CCN(c3ccccc3-c3cc(C#N)cc(C(=O)NCCCN4CCCC4)c3)CC2)c2ccccc12
A. 3.68

====

Tested on: SW1088
test.method.notes: Antiproliferative activity against human SW1088 cells after 10 days
Type: functional, cell-based
condition.description: SW1088, 240 h
outcome.measure: IC50 (nM)
Number in nM, nothing else.

Q. What does the data say about its IC50? Entry: Cc1cn(CCN2CCN(c3ccccc3-c3cc(C#N)cc(C(=O)NCCCN4CCCC4)c3)CC2)c2ccccc12
A. 1180

====

Tested on: SNB-19
test.method.notes: Antiproliferative activity against human SNB-19 cells after 10 days
Assay type: functional, cell-based
condition.description: SNB-19, 240 h
outcome.measure: pIC50
// scale note: pIC50 = -log10(conc_M); give the bare number

Q. What does the data say about its pIC50? Entry: Cc1cn(CCN2CCN(c3ccccc3-c3cc(C#N)cc(C(=O)NCCCN4CCCC4)c3)CC2)c2ccccc12
A. 5.60

====

Tested on: SH-4
test.method.notes: Antiproliferative activity against human SH-4 cells after 10 days
Assay type: functional, cell-based
condition.description: SH-4, 240 h
outcome.measure: IC50 (nM)
Number in nM, nothing else.

Q. What does the data say about its IC50? Entry: Cc1cn(CCN2CCN(c3ccccc3-c3cc(C#N)cc(C(=O)NCCCN4CCCC4)c3)CC2)c2ccccc12
A. 1150

====

Tested on: RD
test.method.notes: Antiproliferative activity against human RD cells in 2D growth culture
Assay type: functional, cell-based
outcome.measure: IC50

Q. What does the data say about its IC50? Entry: N[C@H]1CC[C@H](S(=O)(=O)N2[C@@H]3CC[C@H]2C[C@@H](NC(=O)c2cc(C4CC4)on2)C3)CC1
A. > 25 µM

====

test.method.notes: Antiproliferative activity against human SK-N-BE(2)-C cells in 2D growth culture
Assay type: functional, cell-based
outcome.measure: IC50

Q. What does the data say about its IC50? Entry: N[C@H]1CC[C@H](S(=O)(=O)N2[C@@H]3CC[C@H]2C[C@@H](NC(=O)c2cc(C4CC4)on2)C3)CC1
A. > 25 µM

====

Tested on: SW982
test.method.notes: Antiproliferative activity against human SW982 cells after 10 days
Format: functional, cell-based
condition.description: SW982, 240 h
outcome.measure: pIC50
// scale note: pIC50 = -log10(conc_M); give the bare number

Q. What does the data say about its pIC50? Entry: Cc1cn(CCN2CCN(c3ccccc3-c3cc(C#N)cc(C(=O)NCCCN4CCCC4)c3)CC2)c2ccccc12
A. 5.24

====

System: 769-P
test.method.notes: Antiproliferative activity against human 769-P cells after 10 days
Format: functional, cell-based
condition.description: 240 h
outcome.measure: IC50 (µM)
Number in µM, nothing else.

Q. What does the data say about its IC50? Entry: Cc1cn(CCN2CCN(c3ccccc3-c3cc(C#N)cc(C(=O)NCCCN4CCCC4)c3)CC2)c2ccccc12
A. 2.76

====

test.method.notes: Antiproliferative activity against human C4-1 cells after 10 days
Type: functional, cell-based
condition.description: C4-1, 240 h
outcome.measure: IC50 (nM)
Number in nM, nothing else.

Q. What does the data say about its IC50? Entry: Cc1cn(CCN2CCN(c3ccccc3-c3cc(C#N)cc(C(=O)NCCCN4CCCC4)c3)CC2)c2ccccc12
A. 2060

====

System: NCI-H23
test.method.notes: Antiproliferative activity against human NCI-H23 cells expressing KRAS G12C mutant
Format: functional, cell-based
pIC50: −log10 of the molar value.
outcome.measure: pIC50

Q. What does the data say about its pIC50? Entry: N[C@H]1CC[C@H](S(=O)(=O)N2[C@@H]3CC[C@H]2C[C@@H](NC(=O)c2cc(C4CC4)on2)C3)CC1
A. < 4.70

====

Tested on: Y79
test.method.notes: Antiproliferative activity against human Y79 cells in 2D growth culture
Assay type: functional, cell-based
outcome.measure: IC50

Q. What does the data say about its IC50? Entry: N[C@H]1CC[C@H](S(=O)(=O)N2[C@@H]3CC[C@H]2C[C@@H](NC(=O)c2cc(C4CC4)on2)C3)CC1
A. > 25 µM

====

Tested on: SK-BR-3
test.method.notes: Antiproliferative activity against human SK-BR-3 cells after 10 days
Assay type: functional, cell-based
condition.description: SK-BR-3, 240 h
outcome.measure: pIC50
// scale note: pIC50 = -log10(conc_M); give the bare number

Q. What does the data say about its pIC50? Entry: Cc1cn(CCN2CCN(c3ccccc3-c3cc(C#N)cc(C(=O)NCCCN4CCCC4)c3)CC2)c2ccccc12
A. 5.93

====

System: COR-L23
test.method.notes: Antiproliferative activity against human COR-L23 cells after 10 days
Format: functional, cell-based
condition.description: COR-L23, 240 h
outcome.measure: IC50 (nM)
Number in nM, nothing else.

Q. What does the data say about its IC50? Entry: Cc1cn(CCN2CCN(c3ccccc3-c3cc(C#N)cc(C(=O)NCCCN4CCCC4)c3)CC2)c2ccccc12
A. 2210

====

System: AGS
test.method.notes: Antiproliferative activity against human AGS cells in 2D growth culture
Assay type: functional, cell-based
pIC50: −log10 of the molar value.
outcome.measure: pIC50

Q. What does the data say about its pIC50? Entry: N[C@H]1CC[C@H](S(=O)(=O)N2[C@@H]3CC[C@H]2C[C@@H](NC(=O)c2cc(C4CC4)on2)C3)CC1
A. < 4.60

====

Tested on: SW 954
test.method.notes: Antiproliferative activity against human SW 954 cells after 10 days
Format: functional, cell-based
condition.description: SW 954, 240 h
outcome.measure: pIC50
// scale note: pIC50 = -log10(conc_M); give the bare number

Q. What does the data say about its pIC50? Entry: Cc1cn(CCN2CCN(c3ccccc3-c3cc(C#N)cc(C(=O)NCCCN4CCCC4)c3)CC2)c2ccccc12
A. 5.39

====

test.method.notes: Antiproliferative activity against human RKOE6 cells after 10 days
Type: functional, cell-based
condition.description: RKOE6, 240 h
outcome.measure: pIC50
// scale note: pIC50 = -log10(conc_M); give the bare number

Q. What does the data say about its pIC50? Entry: Cc1cn(CCN2CCN(c3ccccc3-c3cc(C#N)cc(C(=O)NCCCN4CCCC4)c3)CC2)c2ccccc12
A. 5.97

====

System: MIA PaCa-2
test.method.notes: Antiproliferative activity against human Mia PaCa-2 cells after 10 days
Assay type: functional, cell-based
condition.description: MIA PaCa-2, 240 h
outcome.measure: IC50 (nM)
Number in nM, nothing else.

Q. Look up IC50 with MIA PaCa-2 for this molecule: Cc1cn(CCN2CCN(c3ccccc3-c3cc(C#N)cc(C(=O)NCCCN4CCCC4)c3)CC2)c2ccccc12
A. 2030
